# assayTarget: 3-hydroxyacyl-CoA dehydrogenase activity of multi-active enzyme (Pseudomonas fragi, UniProt P28793)
# Construct: Crude enzyme was prepared from microbial cells of Pseudomonas fragi B-0771; endogenous in cells; host or cells: Pseudomonas fragi B-0771 FERM-P No. 5701 (enzyme extracted with lysozyme and purified from its own cells, not recombinant)
# Sequence (P28793 whole entry): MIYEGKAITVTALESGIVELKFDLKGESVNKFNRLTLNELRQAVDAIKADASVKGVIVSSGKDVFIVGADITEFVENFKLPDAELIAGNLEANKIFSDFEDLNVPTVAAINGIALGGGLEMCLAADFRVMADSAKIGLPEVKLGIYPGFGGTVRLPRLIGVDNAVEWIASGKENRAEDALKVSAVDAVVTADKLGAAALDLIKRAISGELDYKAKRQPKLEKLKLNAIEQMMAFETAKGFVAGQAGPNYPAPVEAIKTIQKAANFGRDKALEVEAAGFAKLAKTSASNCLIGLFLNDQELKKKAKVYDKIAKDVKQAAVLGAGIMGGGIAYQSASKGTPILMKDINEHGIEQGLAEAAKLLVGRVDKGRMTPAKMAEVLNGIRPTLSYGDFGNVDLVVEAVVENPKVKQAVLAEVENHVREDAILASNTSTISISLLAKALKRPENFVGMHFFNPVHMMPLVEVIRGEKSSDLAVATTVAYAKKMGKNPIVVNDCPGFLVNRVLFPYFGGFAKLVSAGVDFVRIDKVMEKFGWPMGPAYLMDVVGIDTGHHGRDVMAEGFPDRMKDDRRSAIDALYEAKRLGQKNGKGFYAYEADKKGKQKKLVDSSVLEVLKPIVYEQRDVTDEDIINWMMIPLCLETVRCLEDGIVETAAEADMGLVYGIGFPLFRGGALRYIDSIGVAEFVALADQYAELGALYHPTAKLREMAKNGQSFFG
# Sequence (P28790 whole entry partner): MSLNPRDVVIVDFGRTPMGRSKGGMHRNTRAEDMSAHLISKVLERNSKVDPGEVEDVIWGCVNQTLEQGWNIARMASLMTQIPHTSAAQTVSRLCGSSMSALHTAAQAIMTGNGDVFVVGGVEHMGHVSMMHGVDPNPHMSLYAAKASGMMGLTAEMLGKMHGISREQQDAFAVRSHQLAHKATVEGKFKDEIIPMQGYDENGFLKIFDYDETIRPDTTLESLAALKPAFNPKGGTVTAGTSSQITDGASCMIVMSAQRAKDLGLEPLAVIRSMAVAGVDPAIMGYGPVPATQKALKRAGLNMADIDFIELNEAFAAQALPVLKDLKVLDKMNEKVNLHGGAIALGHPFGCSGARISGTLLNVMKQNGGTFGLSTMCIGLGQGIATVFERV
# assayOverview: Effect of metal ions on 3-hydroxyacyl-CoA dehydrogenase activity
# Format: biochemical, Pseudomonas fragi B-0771
# runConditions: 1 mM metal ion; control 100; 10 min
Relative activity overview
Please state the value followed by its unit.

A selection of reference data follows.
[Cl][Cu][Cl] [CuCl2] ... 12%
[Ca+2].[Cl-].[Cl-] [CaCl 2] ... 113%
[Cl][Ni][Cl] [NiCl2] ... 95%
[Cl-].[Cl-].[Zn+2] [ZnCl2] ... 25%
[Cl-].[Cl-].[Mg+2] [MgCl2] ... 113%
[Ba+2].[Cl-].[Cl-] [BaCl2] ... 106%

*Q* Which Relative activity value is on record for [Cl][Mn][Cl] [MnCl2] ?
*A* 32%

*Q* Ok, now [Cl-].[Cl-].[Co+2] [CoCl2]
*A* 34%
